Sourced from the supplement of paper PMC10567573

B1: RAB11A (parent)
chain: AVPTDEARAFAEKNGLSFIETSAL

variants of: B1; test: protein stability index of a GFP-peptide fusion (GPS, HEK-293T) (PSI 1-6); higher = more stable; details: c terminus: a fixed tail appended;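 also: lentivirally expressed fusions sorted by FACS into six bins by GFP to DsRed ratio, PSI derived from sequencing read proportions per bin multiplied by bin number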
Binary call on protein stability index: 1 (yes) from 3 upward, 0 (no) beneath that.

variant-annotation	assigned-label
L16D	1 (yes)
R8W	0 (no)
A23H	0 (no)
A11E	0 (no)
E12Y	0 (no)
L24K	1 (yes)

Prompt: // inclusive: protein stability index at least 3? input: `I19M`
Response: 1 (yes)

Prompt: // inclusive: protein stability index at least 3? input: `D5T`
Response: 0 (no)
